Data origin, for the record: ChEMBL document CHEMBL2218924

residual activity by entry:
# Study target: Insulin receptor (Homo sapiens) (UniProt P06213)
# Sequence (P06213 28-758 limits assumed): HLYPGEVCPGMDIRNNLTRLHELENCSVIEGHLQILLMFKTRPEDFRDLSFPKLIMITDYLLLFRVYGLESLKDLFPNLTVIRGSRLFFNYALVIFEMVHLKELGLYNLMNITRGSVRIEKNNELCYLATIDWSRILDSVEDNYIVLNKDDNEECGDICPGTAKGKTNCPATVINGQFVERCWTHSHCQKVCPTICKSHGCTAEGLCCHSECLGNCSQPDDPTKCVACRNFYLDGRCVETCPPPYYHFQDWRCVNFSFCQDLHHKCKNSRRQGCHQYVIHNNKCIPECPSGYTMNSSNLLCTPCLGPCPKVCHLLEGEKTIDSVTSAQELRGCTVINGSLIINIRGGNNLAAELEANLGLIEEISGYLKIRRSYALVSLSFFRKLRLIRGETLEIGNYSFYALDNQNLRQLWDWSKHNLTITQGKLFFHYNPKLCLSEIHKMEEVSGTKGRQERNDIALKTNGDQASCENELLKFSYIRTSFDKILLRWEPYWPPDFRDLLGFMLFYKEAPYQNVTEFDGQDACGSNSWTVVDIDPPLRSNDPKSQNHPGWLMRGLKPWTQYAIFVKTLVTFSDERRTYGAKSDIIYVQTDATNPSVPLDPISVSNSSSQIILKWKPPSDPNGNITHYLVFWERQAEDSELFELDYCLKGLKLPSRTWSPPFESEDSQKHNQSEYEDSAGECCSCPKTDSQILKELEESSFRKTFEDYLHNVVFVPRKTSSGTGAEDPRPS
# Sequence (P06213 763-1382 limits assumed): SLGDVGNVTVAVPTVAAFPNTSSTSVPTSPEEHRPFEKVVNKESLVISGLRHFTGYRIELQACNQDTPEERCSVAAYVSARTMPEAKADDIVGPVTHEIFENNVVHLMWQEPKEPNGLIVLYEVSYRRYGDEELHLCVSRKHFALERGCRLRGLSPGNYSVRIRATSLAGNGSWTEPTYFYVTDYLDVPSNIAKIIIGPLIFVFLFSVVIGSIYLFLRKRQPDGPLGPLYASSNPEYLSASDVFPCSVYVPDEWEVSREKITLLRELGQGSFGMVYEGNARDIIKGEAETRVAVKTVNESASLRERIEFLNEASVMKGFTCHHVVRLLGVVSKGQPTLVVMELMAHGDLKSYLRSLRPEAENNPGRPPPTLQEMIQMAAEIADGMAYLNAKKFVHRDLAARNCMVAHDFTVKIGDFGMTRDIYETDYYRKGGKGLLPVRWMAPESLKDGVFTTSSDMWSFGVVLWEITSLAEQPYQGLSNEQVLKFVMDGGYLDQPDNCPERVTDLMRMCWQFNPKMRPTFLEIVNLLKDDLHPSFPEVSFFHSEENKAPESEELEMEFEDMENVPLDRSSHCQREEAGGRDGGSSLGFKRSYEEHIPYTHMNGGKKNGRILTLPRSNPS
# Condition set: at 10 µM
Your answer should be a plain number; it is taken to be in %.

- Smiles input: "C[C@@H](N)[C@H]1CC[C@H](C(=O)Nc2ccncc2)CC1"
  Study target: "Insulin receptor (Homo sapiens) (UniProt P06213)"
  Experimental value: 109
- Smiles input: "CCC(=O)Nc1ccc2ncnc(Nc3cccc(Br)c3)c2c1"
  Study target: "Insulin receptor (Homo sapiens) (UniProt P06213)"
  Experimental value: 79
- Smiles input: "Cc1ccc(S(=O)(=O)/C=C/C#N)cc1"
  Study target: "Insulin receptor (Homo sapiens) (UniProt P06213)"
  Experimental value: 91
- Smiles input: "CC(=O)O/N=C1\\C(=C2\\C(=O)Nc3cc(Br)ccc32)Nc2ccccc21"
  Study target: "Insulin receptor (Homo sapiens) (UniProt P06213)"
  Experimental value: 91
- Smiles input: "Oc1c2ccccc2c2c3c(cccc13)N=N2"
  Study target: "Insulin receptor (Homo sapiens) (UniProt P06213)"
  Experimental value: 47
- Smiles input: "Nc1ccc2ncnc(NCCc3ccc(Oc4ccccc4)cc3)c2c1"
  Study target: "Insulin receptor (Homo sapiens) (UniProt P06213)"
  Experimental value: 35

QUERY: Returns the measured residual activity for the input molecule. Input: c1ccc(-c2n[nH]cc2-c2ccnc3ccccc23)nc1
RESULT: 84

QUERY: Same lookup for Cc1nc2cc3nc(-c4cccs4)cnc3cc2n1C , please.
RESULT: 101

QUERY: Now the same for Ic1cccc(CSc2nnc(-c3ccncc3)o2)c1
RESULT: 82

QUERY: How about this molecule: Cc1nc(-c2ccccc2)c(-c2ccncc2)o1
RESULT: 106

QUERY: Proceed to COc1cccc(-c2cc(=O)c3ccccc3o2)c1N
RESULT: 94

QUERY: And for O=C1c2ccccc2-[n+]2ccc3c([nH]c4ccccc43)c21 ?
RESULT: 93

QUERY: Consider next the molecule CCOc1cc2ncnc(Nc3cccc(Br)c3)c2cc1OCC in the same way.
RESULT: 144

QUERY: Consider next the molecule COc1ccc(CNc2nc(N(CCO)CCO)nc3c2ncn3C(C)C)cc1 in the same way.
RESULT: 85

QUERY: Also check O=C1Nc2ccc(Br)cc2/C1=C\c1cc2c([nH]1)CCCC2
RESULT: 79

QUERY: Okay, and O=[N+]([O-])c1ccc(-c2nc(-c3ccc(F)cc3)c(-c3ccncc3)[nH]2)cc1 ?
RESULT: 109

QUERY: Same for CC#CC(=O)Nc1cc2c(Nc3ccc(F)c(Cl)c3)ncnc2cn1
RESULT: 85

QUERY: Continue with c1ccc2c(-c3ccncc3)c[nH]c2c1
RESULT: 70

QUERY: Then what about the molecule Oc1ccc(Nc2nc(-c3ccc(Cl)cc3)cs2)cc1 ?
RESULT: 133

QUERY: Next: O=C(Nc1cccc(Nc2cc(Nc3cccc(C(F)(F)F)c3)ncn2)c1)C1CC1
RESULT: 94

QUERY: Request: Oc1ccc(-c2nc(-c3ccc(F)cc3)c(-c3ccncc3)[nH]2)cc1
RESULT: 126

QUERY: What do we get for N#C/C(=C(\N)Sc1ccc(N)cc1)c1ccccc1C(F)(F)F ?
RESULT: 102

QUERY: Further, for CC(C)n1cnc2c(NCc3ccccc3)nc(NCCCO)nc21 ?
RESULT: 70

QUERY: Same thing, different molecule: CN(C)c1ccc(/C=C2\C(=O)Nc3ccccc32)cc1
RESULT: 65

* * *

# Study target: Serine/threonine-protein kinase PLK3 (Homo sapiens)
# Condition set: at 10 µM
# Description: Millipore: Percentage of residual kinase activity of PLK3 at 10uM relative to control. Control inhibitor: Wortmannin at 100.0uM. Buffer: 8 mM MOPS pH 7.0, 0.2 mM EDTA
Recorded endpoint: residual activity (%)
Please reply with the bare figure in % and do not write the unit itself.

- Smiles input: "Cc1ccc(S(=O)(=O)/C=C/C#N)cc1"
  Units text: "%"
  residual activity: 97
- Smiles input: "O=C1c2ccccc2-[n+]2ccc3c([nH]c4ccccc43)c21"
  Units text: "%"
  residual activity: 91
- Smiles input: "O=C1NC(=O)/C(=C/c2ccc3c(c2)OC(F)(F)O3)S1"
  Units text: "%"
  residual activity: 96

QUERY: Using the record for Oc1ccc(-c2nc(-c3ccc(F)cc3)c(-c3ccncc3)[nH]2)cc1 , report its residual activity.
RESULT: 90

QUERY: Record: c1ccc2c(-c3ccncc3)c[nH]c2c1
RESULT: 94

QUERY: And the next one, COc1ccc(CNc2nc(N(CCO)CCO)nc3c2ncn3C(C)C)cc1 ?
RESULT: 95

QUERY: Next compound up: COc1cc2ncc(-c3ccccc3)nc2cc1OC
RESULT: 93

QUERY: Lookup NC(=O)c1ccc2[nH]c(-c3ccc(Oc4ccc(Cl)cc4)cc3)nc2c1
RESULT: 91

QUERY: For COc1ccc(C(=O)Nc2sc3c(c2C(N)=O)CCCC3)cc1OC then?
RESULT: 91

QUERY: Moving on to O=Nc1c(-c2c(O)[nH]c3ccccc23)[nH]c2ccccc12
RESULT: 91

QUERY: Query N#Cc1cnc2cnc(NCc3cccnc3)cc2c1Nc1ccc(F)c(Cl)c1 next
RESULT: 96

QUERY: And for Cc1cccc(-c2[nH]c(C(C)(C)C)nc2-c2ccc3c(c2)OCO3)n1 ?
RESULT: 88

QUERY: Next up: CN(C)c1ccc(/C=C2\C(=O)Nc3ccccc32)cc1
RESULT: 88

QUERY: Follow-up item: CC(C)n1cnc2c(NCc3ccccc3)nc(NCCCO)nc21
RESULT: 95

QUERY: Next compound: Cc1cc2ncc(-c3ccccc3)nc2cc1C
RESULT: 92

QUERY: Next compound: Nc1ccc2ncnc(NCCc3ccc(Oc4ccccc4)cc3)c2c1
RESULT: 96

QUERY: Check CC(=O)O/N=C1\C(=C2\C(=O)Nc3cc(Br)ccc32)Nc2ccccc21 too.
RESULT: 99

* * *

# Study target: Rho-associated protein kinase 1 (Homo sapiens) (UniProt Q13464)
# Sequence (Q13464 2-1354 limits assumed): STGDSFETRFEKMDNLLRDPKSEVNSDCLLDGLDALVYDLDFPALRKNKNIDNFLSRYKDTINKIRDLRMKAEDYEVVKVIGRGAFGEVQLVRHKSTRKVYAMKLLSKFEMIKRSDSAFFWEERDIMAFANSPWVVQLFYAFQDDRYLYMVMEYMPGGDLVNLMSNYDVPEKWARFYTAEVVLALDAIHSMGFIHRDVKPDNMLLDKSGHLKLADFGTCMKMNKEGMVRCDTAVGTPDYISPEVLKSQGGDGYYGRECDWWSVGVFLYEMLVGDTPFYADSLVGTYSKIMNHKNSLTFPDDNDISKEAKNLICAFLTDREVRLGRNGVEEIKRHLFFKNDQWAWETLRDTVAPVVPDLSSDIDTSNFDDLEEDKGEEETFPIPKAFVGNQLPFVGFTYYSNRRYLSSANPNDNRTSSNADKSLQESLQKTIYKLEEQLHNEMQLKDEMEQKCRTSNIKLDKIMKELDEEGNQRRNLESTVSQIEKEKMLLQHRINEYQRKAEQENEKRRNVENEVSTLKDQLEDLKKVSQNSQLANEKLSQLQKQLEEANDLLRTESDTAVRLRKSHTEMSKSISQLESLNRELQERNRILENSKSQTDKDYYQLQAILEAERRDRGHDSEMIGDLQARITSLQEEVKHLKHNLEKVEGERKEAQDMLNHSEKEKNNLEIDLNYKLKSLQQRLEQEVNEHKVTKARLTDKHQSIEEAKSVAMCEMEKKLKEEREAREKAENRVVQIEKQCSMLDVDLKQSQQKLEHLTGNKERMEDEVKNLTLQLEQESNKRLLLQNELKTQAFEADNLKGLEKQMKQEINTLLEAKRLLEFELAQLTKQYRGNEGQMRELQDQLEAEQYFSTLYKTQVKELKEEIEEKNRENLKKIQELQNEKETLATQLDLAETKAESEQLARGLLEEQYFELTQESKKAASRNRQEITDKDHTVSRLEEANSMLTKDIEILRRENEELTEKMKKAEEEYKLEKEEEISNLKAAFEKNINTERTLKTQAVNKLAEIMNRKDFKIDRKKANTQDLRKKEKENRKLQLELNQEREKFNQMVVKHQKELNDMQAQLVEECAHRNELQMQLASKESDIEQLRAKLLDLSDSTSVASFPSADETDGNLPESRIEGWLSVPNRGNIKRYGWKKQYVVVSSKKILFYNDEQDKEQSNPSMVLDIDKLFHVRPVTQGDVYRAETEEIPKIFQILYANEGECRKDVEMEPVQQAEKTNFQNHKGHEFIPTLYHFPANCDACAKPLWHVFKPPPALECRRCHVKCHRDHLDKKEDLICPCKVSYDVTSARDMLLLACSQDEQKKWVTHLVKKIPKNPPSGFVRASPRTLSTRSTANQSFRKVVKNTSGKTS
# Condition set: at 10 µM
Quick list: residual activity per entry.

Take a look at these entries with their results.
- Smiles input: "CCN(CC)CCCCN1c2ccccc2Oc2ccc(Cl)cc21"
  Study target: "Rho-associated protein kinase 1 (Homo sapiens) (UniProt Q13464)"
  Recorded endpoint: "residual activity"
  Experimental value: "121%"
- Smiles input: "Nc1n[nH]c2nnc(-c3c(-c4ccccc4)nn4ccccc34)cc12"
  Study target: "Rho-associated protein kinase 1 (Homo sapiens) (UniProt Q13464)"
  Recorded endpoint: "residual activity"
  Experimental value: "105%"
- Smiles input: "O=C(Nc1cccc(Nc2cc(Nc3cccc(C(F)(F)F)c3)ncn2)c1)C1CC1"
  Study target: "Rho-associated protein kinase 1 (Homo sapiens) (UniProt Q13464)"
  Recorded endpoint: "residual activity"
  Experimental value: "99%"
- Smiles input: "CCN(CC)C(=O)c1ccc(Nc2nc(OCC3CCCCC3)c3nc[nH]c3n2)cc1"
  Study target: "Rho-associated protein kinase 1 (Homo sapiens) (UniProt Q13464)"
  Recorded endpoint: "residual activity"
  Experimental value: "23%"
- Smiles input: "O=C(O)c1ccc2c3c1cccc3c(=O)n1c3ccccc3nc21"
  Study target: "Rho-associated protein kinase 1 (Homo sapiens) (UniProt Q13464)"
  Recorded endpoint: "residual activity"
  Experimental value: "80%"

QUERY: # lookup: residual activity of Cc1ccc(NC2=CC(=O)c3sc(C)nc3C2=O)cc1
RESULT: 102%

QUERY: Entry COc1cc2ncnc(Nc3ccc(O)c(Br)c3)c2cc1OC please
RESULT: 102%

* * *

# Study target: Tyrosine-protein kinase Lck (Homo sapiens) (UniProt P06239)
# Sequence (P06239 2-509 limits assumed): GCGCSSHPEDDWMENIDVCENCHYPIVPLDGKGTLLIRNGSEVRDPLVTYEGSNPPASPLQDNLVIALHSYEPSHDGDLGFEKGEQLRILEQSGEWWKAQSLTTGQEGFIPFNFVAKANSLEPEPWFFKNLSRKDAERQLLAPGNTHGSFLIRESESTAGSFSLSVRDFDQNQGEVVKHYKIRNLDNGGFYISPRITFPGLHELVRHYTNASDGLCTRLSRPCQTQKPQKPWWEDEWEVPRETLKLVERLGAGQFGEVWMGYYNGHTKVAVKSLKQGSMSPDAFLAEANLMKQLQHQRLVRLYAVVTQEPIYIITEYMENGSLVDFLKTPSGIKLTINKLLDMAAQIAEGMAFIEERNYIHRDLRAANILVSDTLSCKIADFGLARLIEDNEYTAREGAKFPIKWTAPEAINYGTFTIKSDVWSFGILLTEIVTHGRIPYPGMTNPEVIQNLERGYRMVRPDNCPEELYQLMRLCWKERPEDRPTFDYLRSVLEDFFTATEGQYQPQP
# Condition set: at 1 µM
Recorded endpoint: residual activity (%)
Express the result in % but write the number alone.

- Smiles input: "CCN(CC)CCCCN1c2ccccc2Oc2ccc(Cl)cc21"
  Units text: "%"
  residual activity: 84
- Smiles input: "N#CCCc1ccc2c(c1)-c1[nH]c3ccc([N+](=O)[O-])cc3c1CC(=O)N2"
  Units text: "%"
  residual activity: 14
- Smiles input: "CC#CC(=O)Nc1cc2c(Nc3ccc(F)c(Cl)c3)ncnc2cn1"
  Units text: "%"
  residual activity: 105

QUERY: What residual activity value was documented for this molecule, Oc1n[nH]c2nnc(-c3c(-c4ccccc4)nn4ccccc34)cc12 ?
RESULT: 88

QUERY: Also COc1cc2ncnc(Nc3ccc(Oc4ccccc4)cc3)c2cc1OC ?
RESULT: 0

QUERY: Now consider O=C1Nc2cc(Br)ccc2/C1=C1/Nc2ccccc2/C1=N\O and answer again.
RESULT: 2

* * *

Reported residual activity values follow for various compounds
# Study target: Calcium/calmodulin-dependent protein kinase type II subunit gamma (Homo sapiens) (UniProt Q13555)
# Sequence (Q13555 whole entry): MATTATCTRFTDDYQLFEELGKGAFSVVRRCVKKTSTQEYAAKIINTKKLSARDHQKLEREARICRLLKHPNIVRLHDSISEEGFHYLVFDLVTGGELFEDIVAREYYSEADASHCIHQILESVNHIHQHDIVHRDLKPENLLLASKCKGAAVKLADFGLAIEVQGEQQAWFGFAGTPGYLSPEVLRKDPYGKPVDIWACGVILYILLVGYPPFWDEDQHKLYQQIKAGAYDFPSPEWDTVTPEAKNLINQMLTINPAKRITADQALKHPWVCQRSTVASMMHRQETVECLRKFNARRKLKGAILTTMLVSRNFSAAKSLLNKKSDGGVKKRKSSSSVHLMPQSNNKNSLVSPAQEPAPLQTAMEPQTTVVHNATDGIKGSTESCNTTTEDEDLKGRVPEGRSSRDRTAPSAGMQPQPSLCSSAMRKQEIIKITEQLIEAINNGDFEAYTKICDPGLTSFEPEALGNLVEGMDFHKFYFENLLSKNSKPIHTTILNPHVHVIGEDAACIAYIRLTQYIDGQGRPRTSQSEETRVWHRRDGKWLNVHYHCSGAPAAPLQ
# Condition set: at 10 µM
Supply the numeric figure in %, leaving out any unit text.

- Smiles input: "CN(C)CCCn1cc(C2=C(c3c[nH]c4ccccc34)C(=O)NC2=O)c2ccccc21"
  Experimental value: 6
- Smiles input: "COc1cc2ncnc(N3CCN(C(=O)Nc4ccc(Oc5ccccc5)cc4)CC3)c2cc1OC"
  Experimental value: 100
- Smiles input: "Nc1ccc2ncnc(NCCc3ccc(Oc4ccccc4)cc3)c2c1"
  Experimental value: 11

Shift focus to the following entry.
QUERY: // lookup residual activity for COc1cc2ncnc(Nc3ccc(O)c(Br)c3)c2cc1OC
RESULT: 18
